Just for reference, PubChem BioAssay AID504908 is where these values come from.

biological target: AP-2 complex subunit beta (Homo sapiens) (UniProt P63010); experiment: beta-arrestin/AP2 interaction blockers, retest – biochemical, cherry pick 1, flow cytometry beads, confirmation (AID 504908); conditions: GST-AP2 beads, FITC arrestin peptide binding, at 10 µM, hits give high values, GST-fused beta2-adaptin appendage, R879A mutant;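 also: loss of bead fluorescence from 50 nM FITC arrestin peptide bound to appendage; 0% = negative control wells and 100% = excess unlabelled arrestin peptide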
Sequence (P63010 whole entry, looked up, the tested form may be a part, one chain of several): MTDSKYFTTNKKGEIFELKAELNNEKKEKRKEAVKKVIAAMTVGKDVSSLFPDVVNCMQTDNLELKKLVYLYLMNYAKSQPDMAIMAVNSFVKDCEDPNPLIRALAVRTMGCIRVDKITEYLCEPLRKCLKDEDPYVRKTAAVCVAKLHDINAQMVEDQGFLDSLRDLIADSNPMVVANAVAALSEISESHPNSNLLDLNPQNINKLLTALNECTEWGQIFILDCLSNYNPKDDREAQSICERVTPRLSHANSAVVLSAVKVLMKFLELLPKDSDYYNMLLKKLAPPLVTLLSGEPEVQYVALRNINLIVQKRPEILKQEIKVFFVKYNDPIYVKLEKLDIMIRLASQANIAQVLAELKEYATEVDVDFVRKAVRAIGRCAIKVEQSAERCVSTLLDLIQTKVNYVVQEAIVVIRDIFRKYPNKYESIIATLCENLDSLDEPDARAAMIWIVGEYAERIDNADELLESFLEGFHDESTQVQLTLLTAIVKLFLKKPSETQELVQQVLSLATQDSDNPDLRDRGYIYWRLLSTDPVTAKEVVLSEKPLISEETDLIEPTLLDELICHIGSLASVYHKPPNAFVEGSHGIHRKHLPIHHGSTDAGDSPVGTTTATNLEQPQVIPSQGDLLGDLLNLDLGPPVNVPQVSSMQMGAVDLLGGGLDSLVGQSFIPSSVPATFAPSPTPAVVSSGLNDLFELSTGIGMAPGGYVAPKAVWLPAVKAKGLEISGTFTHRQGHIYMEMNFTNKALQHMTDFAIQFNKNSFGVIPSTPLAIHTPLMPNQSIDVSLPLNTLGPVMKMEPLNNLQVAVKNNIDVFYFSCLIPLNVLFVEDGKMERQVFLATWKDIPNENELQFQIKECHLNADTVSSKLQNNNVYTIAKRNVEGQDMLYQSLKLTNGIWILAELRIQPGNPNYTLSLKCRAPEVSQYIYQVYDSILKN
Screen size: about 1,300 compounds; about 25 (2%) were called active. Only a sample is shown.
Item-by-item account of inhibition
// return numeric value only (unit: %, not printed)

Examples from the recorded data:
O=C(c1ccc(S(=O)(=O)NCc2ccco2)cc1)N1CCN(c2ccccc2)CC1 = 1.61
O=C(NCc1ccco1)c1ccc(CS(=O)(=O)Cc2ccc(F)cc2)o1 = 3.68
COc1ccc(/C=C2\SC(=S)N(CCC(=O)Nc3ccccn3)C2=O)cc1OC = 17.1
C/C(=N\Nc1ccc([N+](=O)[O-])cc1)c1ccc(-n2nncc2C(C)(C)C)cc1 = -0.82
Cc1cccc(C)c1NC(=O)C(Cl)C(=O)c1ccccc1 (stereo not given) = 8.36
COc1cc2c(cc1OC)CN(C(=O)c1cc(=O)c3ccccc3o1)CC2 = -9.22
CCOC(=O)N1CCN(C(=O)CNC(=O)Cc2ccc(Cl)cc2)CC1 = -12.2
CC(C)c1nnc(NC(=O)CCC(=O)N2CCN(c3cccc(Cl)c3)CC2)s1 = 1.25
Cc1cccc(NC(=S)NC(=O)c2ccc(Br)o2)c1 = -4.95

Attention now turns to another entry.
Reported inhibition for CC(NCCc1ccc(S(N)(=O)=O)cc1)C(=O)NCc1ccccc1 (stereo not given) : what is it?
5.93
